# Target Desc: T1, LHRH binding sites on EFO-27 human ovarian cancer cells (human)
# T1 chain: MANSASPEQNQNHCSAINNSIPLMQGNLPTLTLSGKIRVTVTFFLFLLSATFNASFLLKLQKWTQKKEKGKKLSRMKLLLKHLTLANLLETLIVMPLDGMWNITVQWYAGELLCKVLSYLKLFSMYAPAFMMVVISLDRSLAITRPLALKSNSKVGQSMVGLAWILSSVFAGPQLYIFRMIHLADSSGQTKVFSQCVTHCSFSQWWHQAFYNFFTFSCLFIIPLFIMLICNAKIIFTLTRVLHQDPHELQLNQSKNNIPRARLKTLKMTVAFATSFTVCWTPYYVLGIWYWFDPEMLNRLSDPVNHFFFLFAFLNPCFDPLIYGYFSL
# Assay Info: competition with [125I-Tyr8]BRU-2477 on EFO-27 cells
Non-standard residues stand in square brackets, D forms with d. Primed or numbered codes have the meaning given here. DO3A10CM″ = chelating group at the N-terminus (X in the sequence tables); DO3A10CM = not defined here; azaGly = NNC(=O)O; Sar = CNCC(=O)O
Observed Property: EC50
Write your answer as a measured quantity: the number, then the unit.

Worked cases, EC50 given:
| Binder | EC50 |
| --- | --- |
| DO3A10CM-[Sar]HWSH[dR]WWP[azaGly]-NH2 (reading uncertain, AA8 Trp) [BRU-2724] | 2.67 µM |
| {DO3A10CM″}-[Sar]HWSH[dR]WHP[azaGly]-NH2 (AA8 His) [BRU-2763] | 13.6 µM |
| DO3A10CM-[Sar]HWSH[dR]WFP[azaGly]-NH2 (reading uncertain, AA8 Phe) [BRU-2730] | 12.9 µM |
| DO3A10CM-[Sar]HWSH[dR]WP[azaGly]-NH2 (not fully specified; reading uncertain) [BRU-2767] | 10 µM |

Exam item: Name the recorded EC50 for DO3A10CM-[Sar]HWSH[dR]WRP[azaGly]-NH2 (reading uncertain, AA8 Arg) [BRU-2723] .
Marked response: 2.83 µM
